- system: JAK3 (Homo sapiens)
- Sequence (P52333 1-1124): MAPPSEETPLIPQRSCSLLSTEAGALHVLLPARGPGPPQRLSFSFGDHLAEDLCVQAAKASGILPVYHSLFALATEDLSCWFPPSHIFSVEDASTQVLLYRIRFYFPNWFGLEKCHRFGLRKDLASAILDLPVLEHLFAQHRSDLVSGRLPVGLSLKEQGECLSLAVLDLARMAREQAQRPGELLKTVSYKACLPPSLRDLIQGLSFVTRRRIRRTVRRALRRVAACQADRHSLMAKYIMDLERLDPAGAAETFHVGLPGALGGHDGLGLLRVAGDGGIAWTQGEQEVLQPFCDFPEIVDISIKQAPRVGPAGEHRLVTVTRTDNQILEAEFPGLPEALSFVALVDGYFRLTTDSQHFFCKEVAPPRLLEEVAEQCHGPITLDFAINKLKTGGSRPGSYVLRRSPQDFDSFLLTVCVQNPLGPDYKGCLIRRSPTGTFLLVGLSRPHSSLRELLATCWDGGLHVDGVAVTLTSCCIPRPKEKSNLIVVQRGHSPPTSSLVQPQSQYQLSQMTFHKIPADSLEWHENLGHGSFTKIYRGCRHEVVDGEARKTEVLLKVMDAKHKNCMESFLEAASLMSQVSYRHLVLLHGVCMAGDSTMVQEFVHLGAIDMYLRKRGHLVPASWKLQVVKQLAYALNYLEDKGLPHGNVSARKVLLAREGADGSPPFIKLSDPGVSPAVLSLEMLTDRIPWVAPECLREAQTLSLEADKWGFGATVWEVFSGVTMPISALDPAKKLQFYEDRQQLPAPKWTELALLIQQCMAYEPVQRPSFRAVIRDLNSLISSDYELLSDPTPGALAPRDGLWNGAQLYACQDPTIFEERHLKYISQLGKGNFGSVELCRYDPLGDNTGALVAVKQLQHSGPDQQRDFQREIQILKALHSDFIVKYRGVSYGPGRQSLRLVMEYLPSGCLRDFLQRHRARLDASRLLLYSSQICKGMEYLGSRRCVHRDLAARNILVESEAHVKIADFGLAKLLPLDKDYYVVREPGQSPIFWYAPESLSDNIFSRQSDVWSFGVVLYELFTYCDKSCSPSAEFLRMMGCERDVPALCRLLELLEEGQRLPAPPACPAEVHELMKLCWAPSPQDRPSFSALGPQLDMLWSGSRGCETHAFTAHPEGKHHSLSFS
- assay_name: JAK3 Inhibition Assay
- Type: biochemical
- recorded_conditions: 1 μM poly(Glu)4Tyr, 5 μM ATP, 1 nM JAK3, 25° C.; read-out: JAK3 enzyme inhibition data (Ki)
pKi: −log10 of the molar value.
Listed here are molecules together with their documented pKi.

Query: Any idea what pKi was measured for O=C(c1ccc(-c2ncnc3[nH]ccc23)o1)N(CC1CCCC1)CC(F)(F)F ?
Reply: > 7.00

Query: Moving on to the next molecule: CCCN(CCC#N)C(=O)c1cc(-c2ncnc3[nH]ccc23)c[nH]1
Reply: > 7.00

Query: Moving on to the next molecule: C[C@H](O)CNC(=O)c1cc(-c2ncnc3[nH]ccc23)c[nH]1
Reply: 6.30 to 7.00

Query: Moving on to the next molecule: N#CCNC(=O)c1cc(-c2ncnc3[nH]ccc23)c[nH]1
Reply: > 7.00

Query: Moving on to the next molecule: O=C(O)CCC(=O)Nc1nc(-c2ncnc3[nH]ccc23)cs1
Reply: 6.30 to 7.00

Query: Moving on to the next molecule: c1nc(-c2cn[nH]c2)c2cc[nH]c2n1
Reply: 6.30 to 7.00

Query: Moving on to the next molecule: CCCCN(CC#N)C(=O)c1cc(-c2ncnc3[nH]ccc23)c[nH]1
Reply: > 7.00

Query: Moving on to the next molecule: O=C(c1ccc(-c2ncnc3[nH]ccc23)o1)N(CCC(F)(F)F)Cc1ccccc1
Reply: > 7.00

Query: Moving on to the next molecule: C=CCN(C(=O)c1ccc(-c2ncnc3[nH]ccc23)o1)[C@@H](C)c1ccccc1
Reply: > 7.00

Query: Moving on to the next molecule: CC(C)CCn1cc(-c2ncnc3[nH]cc(Cl)c23)cn1
Reply: 6.30 to 7.00

Query: Moving on to the next molecule: CCCCN(CC)C(=O)c1cc(-c2ncnc3[nH]ccc23)cn1C
Reply: 6.30 to 7.00

Query: Moving on to the next molecule: COC1CCC(C(=O)Nc2nc(-c3ncnc4[nH]ccc34)cs2)CC1 (stereo not shown)
Reply: 6.30 to 7.00

Query: Moving on to the next molecule: CC(C)CCn1cc(-c2ncnc3[nH]ccc23)cn1
Reply: 6.30 to 7.00

Query: Moving on to the next molecule: COCCNC(=O)C(C)n1cc(-c2ncnc3[nH]ccc23)cn1 (stereo not shown)
Reply: 5.30 to 6.30

Query: Moving on to the next molecule: O=C(NC1CC1)c1cc(-c2ncnc3[nH]ccc23)c[nH]1
Reply: 6.30 to 7.00

Query: Moving on to the next molecule: C#CCN(C)C(=O)c1cc(-c2ncnc3[nH]ccc23)c[nH]1
Reply: 6.30 to 7.00

* * *

- system: UniProtKB P52333
- Sequence (P52333 1-1124): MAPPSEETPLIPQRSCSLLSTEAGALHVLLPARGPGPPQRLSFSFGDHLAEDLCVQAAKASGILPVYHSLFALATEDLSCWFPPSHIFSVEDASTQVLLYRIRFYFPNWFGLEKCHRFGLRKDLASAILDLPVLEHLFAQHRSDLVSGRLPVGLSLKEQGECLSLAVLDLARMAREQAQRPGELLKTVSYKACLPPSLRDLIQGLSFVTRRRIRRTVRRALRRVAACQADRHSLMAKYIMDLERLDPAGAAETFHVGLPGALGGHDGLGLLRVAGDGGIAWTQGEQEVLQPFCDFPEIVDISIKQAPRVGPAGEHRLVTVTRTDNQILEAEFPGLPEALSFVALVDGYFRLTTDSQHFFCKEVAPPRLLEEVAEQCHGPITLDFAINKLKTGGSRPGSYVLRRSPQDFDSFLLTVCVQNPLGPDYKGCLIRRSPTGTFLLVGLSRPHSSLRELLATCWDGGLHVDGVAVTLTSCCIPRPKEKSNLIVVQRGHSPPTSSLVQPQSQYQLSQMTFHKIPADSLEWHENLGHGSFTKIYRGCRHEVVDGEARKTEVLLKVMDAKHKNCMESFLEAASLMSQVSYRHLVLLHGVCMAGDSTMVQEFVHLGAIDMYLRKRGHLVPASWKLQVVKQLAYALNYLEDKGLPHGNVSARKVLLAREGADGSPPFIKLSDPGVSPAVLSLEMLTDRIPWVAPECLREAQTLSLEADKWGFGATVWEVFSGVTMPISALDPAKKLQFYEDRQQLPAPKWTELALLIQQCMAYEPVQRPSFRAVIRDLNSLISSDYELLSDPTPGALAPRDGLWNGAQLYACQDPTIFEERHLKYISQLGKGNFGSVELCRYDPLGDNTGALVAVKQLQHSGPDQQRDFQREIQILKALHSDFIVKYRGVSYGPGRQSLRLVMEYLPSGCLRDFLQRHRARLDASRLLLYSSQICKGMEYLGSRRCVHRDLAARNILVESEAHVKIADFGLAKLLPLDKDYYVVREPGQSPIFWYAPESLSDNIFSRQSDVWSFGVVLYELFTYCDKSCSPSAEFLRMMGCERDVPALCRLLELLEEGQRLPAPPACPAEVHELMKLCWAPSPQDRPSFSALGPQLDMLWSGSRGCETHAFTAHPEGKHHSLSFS
pKi: −log10 of the molar value.
readout_kind: pKi

compound | pKi
CC#CCN(CC(C)C)C(=O)c1cc(-c2ncnc3[nH]ccc23)c[nH]1 [Compound 189] | > 7.00
CCC(CC)n1cc(-c2ncnc3[nH]ccc23)cn1 [Compound 39] | > 7.00
O=C(Nc1nc(-c2ncnc3[nH]ccc23)cs1)C1CCN(C(=O)c2ccccc2)CC1 [Compound 173] | > 7.00
O=C(CC1CCCC1)Nc1nc(-c2ncnc3[nH]ccc23)cs1 [Compound 32] | > 7.00
NC(=O)C1CCCN1C(=O)c1ccc(-c2ncnc3[nH]ccc23)o1 (stereo not drawn) [Compound 221] | 5.30 to 6.30

Query: Any idea what pKi was measured for CN(Cc1cccnc1)C(=O)c1cc(-c2ncnc3[nH]ccc23)c[nH]1 [Compound 49] ?
Reply: 6.30 to 7.00

Query: Moving on to the next compound: CCCC(CC)n1cc(-c2ncnc3[nH]ccc23)cn1 (stereo not drawn) [Compound 94]
Reply: > 7.00

Query: Moving on to the next compound: c1cc(-c2ncnc3[nH]ccc23)[nH]n1 [Compound 4]
Reply: 6.30 to 7.00

Query: Moving on to the next compound: O=C(CCC1CCCC1)Nc1nc(-c2ncnc3[nH]ccc23)cs1 [Compound 67]
Reply: > 7.00

* * *

- system: JAK-2 enzyme (Homo sapiens, UniProt O60674)
- Sequence (O60674 whole entry, species assumed): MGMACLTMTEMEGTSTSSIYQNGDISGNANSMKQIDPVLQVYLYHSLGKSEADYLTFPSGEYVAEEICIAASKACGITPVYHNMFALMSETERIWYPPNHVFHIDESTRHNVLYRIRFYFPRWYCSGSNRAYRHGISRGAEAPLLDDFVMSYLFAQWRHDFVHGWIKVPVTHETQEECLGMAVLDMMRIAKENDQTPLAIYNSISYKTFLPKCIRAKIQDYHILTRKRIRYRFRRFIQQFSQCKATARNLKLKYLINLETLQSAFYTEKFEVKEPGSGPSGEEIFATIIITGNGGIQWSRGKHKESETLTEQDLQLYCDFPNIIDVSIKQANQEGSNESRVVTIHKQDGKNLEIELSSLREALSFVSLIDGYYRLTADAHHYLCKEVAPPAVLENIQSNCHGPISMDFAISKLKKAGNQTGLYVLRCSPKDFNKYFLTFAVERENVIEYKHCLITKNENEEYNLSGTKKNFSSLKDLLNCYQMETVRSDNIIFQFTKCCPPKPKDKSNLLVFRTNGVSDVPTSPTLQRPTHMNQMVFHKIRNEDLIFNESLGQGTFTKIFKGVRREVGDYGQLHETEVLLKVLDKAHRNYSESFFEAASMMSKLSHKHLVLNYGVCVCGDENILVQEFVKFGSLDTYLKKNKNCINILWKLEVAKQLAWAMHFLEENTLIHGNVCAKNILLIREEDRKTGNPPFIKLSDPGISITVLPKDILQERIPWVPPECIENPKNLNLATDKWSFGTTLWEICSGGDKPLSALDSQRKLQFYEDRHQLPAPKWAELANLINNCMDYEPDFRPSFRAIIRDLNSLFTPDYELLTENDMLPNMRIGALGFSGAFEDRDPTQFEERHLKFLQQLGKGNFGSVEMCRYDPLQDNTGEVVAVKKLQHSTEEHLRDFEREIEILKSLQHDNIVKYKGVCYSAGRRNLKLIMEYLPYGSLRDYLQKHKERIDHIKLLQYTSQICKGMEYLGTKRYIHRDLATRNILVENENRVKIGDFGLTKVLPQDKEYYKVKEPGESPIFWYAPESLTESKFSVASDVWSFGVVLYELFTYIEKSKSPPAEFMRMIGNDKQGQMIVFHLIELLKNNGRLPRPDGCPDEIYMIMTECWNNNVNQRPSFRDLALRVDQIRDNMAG
pKi: −log10 of the molar value.
readout_kind: pKi

Known results for compounds:
compound | data_value
O=C(Nc1nc(-c2ncnc3[nH]ccc23)cs1)C1CCN(C(=O)c2ccccc2)CC1 | > 7.00
O=C(c1cc(-c2ncnc3[nH]ccc23)c[nH]1)N(CC1CC1)CC(F)(F)F | > 7.00
CCCN(CC1CC1)C(=O)c1cc(-c2ncnc3[nH]ccc23)c[nH]1 | > 7.00
CCC(O)CNC(=O)C(C)n1cc(-c2ncnc3[nH]ccc23)cn1 (stereo not drawn) | 5.30 to 6.30
CCC(C)n1cc(-c2ncnc3[nH]ccc23)cn1 (stereo not drawn) | > 7.00
C=CCN(C(=O)c1cc(-c2ncnc3[nH]ccc23)c[nH]1)C(C)c1ccccc1 (stereo not drawn) [Compound 114] | > 7.00

Query: Any idea what pKi was measured for CCCC(CC)n1cc(-c2ncnc3[nH]ccc23)cn1 (stereo not drawn) ?
Reply: > 7.00

Query: Moving on to the next compound: N#CCCN(Cc1ccccc1)C(=O)c1cc(-c2ncnc3[nH]ccc23)c[nH]1
Reply: > 7.00

Query: Moving on to the next compound: CCCCN(CC)C(=O)c1cc(-c2ncnc3[nH]ccc23)cn1C
Reply: > 7.00

Query: Moving on to the next compound: Cc1c[nH]c2ncnc(-c3c[nH]c(C(=O)N4C(C)C=CC4C)c3)c12 (stereo not drawn)
Reply: > 7.00

Query: Moving on to the next compound: CN1CC(C(=O)Nc2nc(-c3ncnc4[nH]ccc34)cs2)CC1=O (stereo not drawn)
Reply: > 7.00

Query: Moving on to the next compound: COC1CCC(C(=O)Nc2nc(-c3ncnc4[nH]ccc34)cs2)CC1 (stereo not drawn)
Reply: > 7.00

Query: Moving on to the next compound: NC(=O)C1CCCN1C(=O)c1cc(-c2ncnc3[nH]ccc23)c[nH]1 (stereo not drawn)
Reply: 6.30 to 7.00

Query: Moving on to the next compound: CCC1CC[C@@H](CC)N1C(=O)c1cc(-c2ncnc3[nH]ccc23)c[nH]1 (stereo partly drawn)
Reply: > 7.00
